- Test system: BDF1 mice, B16 melanoma ip, median survival T/C
- procedure_summary: NCI In Vivo Anticancer Drug Screen. Data for tumor model B16 Melanoma (intraperitoneal) in B6D2F1 (BDF1) mice
- measurement_context: endpoint: median survival time; dose: 100.0 mg/kg/injection; schedule: Q01DX009 (ip); vehicle: Klucel (hydroxypropylcellulose) (HPC); higher = longer survival
Inconclusive results and toxic doses are left out.
attribute_measured: T/C

Please review the entries below; each comes with its answer.
COc1ccc(NC(=O)COc2ccc(Cl)cc2)cc1
90 % of control
C=C1N(C)c2ccc(Cl)cc2C1(C)C
87 % of control
CCCCCCCCCC(O)CCC (stereo not drawn)
92 % of control

Name the recorded T/C for O=C(Nc1ccc(Br)cc1)c1ccc(Cl)c(Cl)c1 . 118 % of control

Please give the measured T/C for this compound: O=C(Cl)c1ccc(OC(Cl)(Cl)Cl)cc1 100 % of control

I would be grateful if you could share the reported T/C for O=C1C=CC(=O)C2=C1C1c3ccccc3C2([N+](=O)[O-])c2ccccc21 . 97 % of control

Quick check: T/C of Cc1ccc2c([N+](=O)[O-])cccc2n1 ? 98 % of control

Look up T/C for this compound: CN(C)/C=C/C(=O)c1ccccc1[N+](=O)[O-] 115 % of control

----------
- Tested on: BDF1 mice, B16 melanoma ip, median survival T/C
- procedure_summary: NCI In Vivo Anticancer Drug Screen. Data for tumor model B16 Melanoma (intraperitoneal) in B6D2F1 (BDF1) mice
- measurement_context: endpoint: median survival time; dose: 2.5 mg/kg/injection; schedule: Q01DX009 (ip); vehicle: saline with Tween-80; higher = longer survival
Inconclusive results and toxic doses are left out.
This section presents molecules with their documented T/C values.

Previously resolved entries follow.
[Cu+2].[NH-]C1(C(=O)O)CCCC1.[NH-]C1(C(=O)O)CCCC1
93 % of control
CS(=O)(=O)c1cc([N+](=O)[O-])cc([N+](=O)[O-])c1Cl
86 % of control
CSc1cc(=O)n2c3ccccc3c3ccnc1c32
101 % of control
COc1ccc2cc3[n+](cc2c1OC)CCc1cc2c(cc1-3)OCO2
100 % of control

For the next question, use this molecule.
I would be grateful if you could share the reported T/C for O=C(CBr)c1ccc(I)cc1 . 102 % of control

----------
- System: BDF1 mice, B16 melanoma ip, median survival T/C
- procedure_summary: NCI In Vivo Anticancer Drug Screen. Data for tumor model B16 Melanoma (intraperitoneal) in B6D2F1 (BDF1) mice
- measurement_context: endpoint: median survival time; dose: 3.12 mg/kg/injection; schedule: Q01DX009 (ip); vehicle: saline; higher = longer survival
Toxic doses and inconclusive results are not listed. Peptide text beside a SMILES is read from it. * marks the point of attachment. Cbz = O=C(OCc1ccccc1)*; CH2Cl = ClC*
attribute_measured: T/C

Completed entries (count: 3):
Cc1cc2nc3ccc(=[N+](C)C)cc-3sc2cc1N
116 % of control
CCN(CC)CCCN1c2ccccc2Sc2ccc(Cl)cc21
102 % of control
CNC(C)CC1CCCCC1 (centres undefined)
100 % of control

So what T/C did CC(C)=CC(=O)OCC[N+](C)(C)C get with BDF1 mice, B16 melanoma ip, median survival T/C? 112 % of control

T/C of CN1CCC(=C2c3ccccc3C=Cc3ccccc32)CC1 on BDF1 mice, B16 melanoma ip, median survival T/C? 110 % of control

// fetch BDF1 mice, B16 melanoma ip, median survival T/C T/C for ClCCCN1CCCCC1CCl (centres undefined) 111 % of control

Value wanted: T/C (BDF1 mice, B16 melanoma ip, median survival T/C) of entry CC(C)CC(NC(=O)OCc1ccccc1)C(=O)NC(Cc1ccccc1)C(=O)CCl (stereo not drawn) (Cbz-Leu-Phe-CH2Cl; configuration not given here) 99 % of control

GET /values?readout=T/C&system=BDF1 mice, B16 melanoma ip, median survival T/C&item= CCCCNCC1COc2cccc(OCC)c2O1 (centres undefined) 120 % of control

# get_value(readout= T/C, system= BDF1 mice, B16 melanoma ip, median survival T/C) for COc1cc(C)c2c(c1C=O)Oc1c(c(C)c(O)c3c1C(O)OC3=O)OC2=O (centres undefined) 101 % of control

All figures here come from PubChem BioAssay AID192.
